src = the Human Domainome abundance scans (Beltran et al. 2025)

B1: Storkhead-box protein 2, residues 64 to 141; numbered along this chain, Q9P2F5 (parent)
chain: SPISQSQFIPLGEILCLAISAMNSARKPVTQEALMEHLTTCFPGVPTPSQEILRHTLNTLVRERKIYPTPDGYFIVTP

- Variants of: B1
- protocolNotes: abundance fitness (aPCA) (normalised: wild type 0, dead -1); higher = more abundant; growth selection in yeast, the domain comes from the species named
- measurementSetup: Homo sapiens
Would you please tag the item true when its abundance fitness is -0.03 or above, and false when it is below?

[
  {
    "change": "Q7T",
    "classification": "true"
  },
  {
    "change": "M35K",
    "classification": "false"
  },
  {
    "change": "T69K",
    "classification": "false"
  },
  {
    "change": "T39G",
    "classification": "true"
  },
  {
    "change": "T56C",
    "classification": "false"
  },
  {
    "change": "M35E",
    "classification": "false"
  },
  {
    "change": "S4C",
    "classification": "true"
  },
  {
    "change": "Q31T",
    "classification": "true"
  },
  {
    "change": "Q50S",
    "classification": "false"
  },
  {
    "change": "Q50H",
    "classification": "true"
  },
  {
    "change": "L53M",
    "classification": "true"
  },
  {
    "change": "T77C",
    "classification": "true"
  },
  {
    "change": "P46S",
    "classification": "false"
  }
]
